Listed here: molecules with reported pKi for human FLAP (Homo sapiens (Human), UniProt P20292).
pKi: −log10 of the molar value. Structures can show the parent of a compound that is named as a salt.

Examples from the recorded data:
INSERT INTO assay_data (molecule, recordedresult) VALUES
  ('N#Cc1nc(N)ncc1Oc1c(C2CCC2)ccc(-c2cnc(N)cn2)c1F [Example 273]', '< 5.00'),
  ('Nc1cnc(-c2ccc(C3CCC3)c(OCC3CCCN3)c2F)cn1 (racemic) [Example 302]', '< 5.00');

Turning now to a further molecule:
The recorded pKi with human FLAP (Homo sapiens (Human), UniProt P20292) for Cn1ccnc1COc1c(C2CCC2)ccc(-c2cnc(N)cn2)c1F [Example 280, trifluoroacetic acid salt] was < 5.00

----------
# assaySystem: UniProtKB P20292
# assayProcedure: FLAP binding assay (HTRF)
# experimentalSetup: human FLAP-containing membranes, HTRF format; average of two assay plates, duplicates; read-out: FLAP Binding wild type HTRF Ki
# Procedure: The ability of the compounds of the present invention to treat a FLAP-mediated disease and/or disorder, or associated symptoms or complications thereof, was determined using the following procedures. Binding assay data represent the average value obtained from two different assay plates, with samples run in duplicate on each plate. Human whole blood assay data represent a single replicate on an assay plate using whole blood from at least one healthy donor. Data are expressed as a HTRF ratio.
Counter-ions that a name gives are not always drawn.
metricName: Ki

Examples from the recorded data:
INSERT INTO results (molecule, metricname, recordedresult) VALUES
  ('Cc1ccc(-c2cnc(N)cn2)c(F)c1Oc1ncccn1 [Example 314]', 'Ki', '> 10 µM'),
  ('Cn1cncc1COc1c(C2CCC2)ccc(-c2cnc(N)cn2)c1F [Example 285, trifluoroacetic acid salt]', 'Ki', '> 10 µM');

The recorded Ki with UniProtKB P20292 for CN(C)CCCOc1c(C2CCC2)ccc(-c2cnc(N)cn2)c1F [Example 267] was > 10 µM

----------
# Tested on: leukotriene pathway in human whole blood (LTB4 levels)
# assayProcedure: Human whole blood assay (LTB4)
# Format: cell-based
# experimentalSetup: human whole blood diluted 1:1 in RPMI, stimulated with calcium ionophore A23187; single replicate
# Experimental: The ability of the compounds of the present invention to treat a FLAP-mediated disease and/or disorder, or associated symptoms or complications thereof, was determined using the following procedures. Binding assay data represent the average value obtained from two different assay plates, with samples run in duplicate on each plate. Human whole blood assay data represent a single replicate on an assay plate using whole blood from at least one healthy donor. […]
metricName: IC50 (nM)
Number in nM, nothing else.

Examples from the recorded data:
INSERT INTO results (structurenotation, endpointunit, recordedresult) VALUES
  ('Nc1ncc(-c2ccc(C3CCC3)c(Oc3ncccn3)c2F)cn1', 'nM', 494),
  ('Nc1cnc(-c2ccc(C3CCC3)c(Oc3nccc(-c4ccccc4)n3)c2F)cn1', 'nM', 6.7);

Turning now to a further molecule:
Record Nc1cnc(-c2ccc(C3CCC3)c(Oc3ccc(C(F)(F)F)cn3)c2F)cn1 , field IC50: 608

----------
IC50 values, listed per item
# System: leukotriene pathway in human whole blood (LTB4 levels)
# assayProcedure: Human whole blood assay (LTB4)
# Type: cell-based
# experimentalSetup: human whole blood diluted 1:1 in RPMI, stimulated with calcium ionophore A23187; single replicate
Where a name gives a salt, the structure may show the parent alone.
Number in nM, nothing else.

INSERT INTO assay_data (compound, metricname, recordedresult) VALUES
  ('Nc1cnc(-c2ccc(C3CCC3)c(OCC(O)Cn3ncccc3=O)c2F)cn1 (racemic) [Example 53]', 'IC50', 645),
  ('CC(C)(C)c1ccc(-c2cnc(N)nc2)c(F)c1Oc1cc(N)ncn1 [Example 208]', 'IC50', 215),
  ('Nc1cnc(-c2ccc(C3CCC3)c(OCc3c(F)cccc3F)c2F)cn1 [Example 31]', 'IC50', 1960),
  ('N#Cc1cccnc1Oc1c(C2CCC2)ccc(-c2cnc(N)cn2)c1F [Example 110]', 'IC50', 52.2),
  ('N#Cc1cccc(Oc2c(C3CCC3)ccc(-c3cnc(N)cn3)c2F)n1 [Example 111]', 'IC50', 65.4),
  ('Nc1cnc(-c2ccc(C3CCC3)c(Oc3cnccn3)c2F)cn1 [Example 259]', 'IC50', 134),
  ('Nc1cnc(-c2ccc(C3CCC3)c(Oc3cc(N4CCC4)ncn3)c2F)cn1 [Example 138, trifluoroacetate salt]', 'IC50', 70.3);

Turning now to a further compound:
Record Nc1ccnc(Oc2c(C3CCC3)ccc(-c3cnc4c(c3)OCCN4)c2F)n1 [Example 226] , field IC50: 90.1

----------
# assaySystem: human FLAP (Homo sapiens (Human))
# Sequence (P20292 whole entry): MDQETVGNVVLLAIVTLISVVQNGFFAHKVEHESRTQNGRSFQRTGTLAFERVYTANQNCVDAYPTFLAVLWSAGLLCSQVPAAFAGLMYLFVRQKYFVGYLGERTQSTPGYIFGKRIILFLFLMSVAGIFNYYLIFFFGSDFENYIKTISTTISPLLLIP
Where a name gives a salt, the structure may show the parent alone.
metricName: pKi
Just the number, please; pKi means minus log10 of the concentration in mol/L.

Examples from the recorded data:
INSERT INTO measurements (compound, recordedresult) VALUES
  ('Nc1cnc(-c2ccc(C3CCC3)c(O)c2F)cn1', 6.45),
  ('Nc1cnc(-c2ccc(C3CCC3)c(OCC(O)Cn3cnccc3=O)c2F)cn1 (racemic)', 6.44),
  ('Nc1cnc(-c2ccc(C3CCC3)c(OCc3nc4ccccc4s3)c2F)cn1 [Example 283, trifluoroacetic acid salt]', 7.01),
  ('Nc1cnc(-c2ccc(C3CCC3)c(OCc3cc(Cl)ccc3C(F)(F)F)c2F)cn1', 6.37),
  ('N#Cc1cccc(COc2c(C3CCC3)ccc(-c3cnc4c(c3)OCCN4)c2F)c1', 7.92),
  ('Nc1cnc(-c2ccc(C3CCC3)c(OCc3nc(C(=O)O)co3)c2F)cn1 [Example 282, trifluoroacetic acid salt]', 7.53),
  ('Fc1c(-c2cnc3c(c2)OCCN3)ccc(C2CCC2)c1OCc1ccccc1', 7.69),
  ('Nc1cnc(-c2ccc(C3CCC3)c(OCC(O)Cn3nncc3N)c2F)cn1 (racemic)', 6.37);

Turning now to a further compound:
The recorded pKi with human FLAP (Homo sapiens (Human)) for Cc1cc(Oc2c(C3CCC3)ccc(-c3cnc(N)cn3)c2F)nc(N(C)C)n1 was 8.66

----------
# assaySystem: UniProt P20292
pKi values, listed per item
Just the number, please; pKi means minus log10 of the concentration in mol/L.

INSERT INTO measurements (compound, recordedresult) VALUES
  ('CCc1ccc(-c2cnc(N)cn2)c(F)c1Oc1nccc(N)n1', 6.70),
  ('Nc1cnc(-c2ccc(C3CCC3)c(Oc3nccc(-c4cccs4)n3)c2F)cn1', 9.00),
  ('COc1c(C2CCC2)ccc(-c2cnc3[nH]cnc3c2)c1F', 6.48),
  ('Cc1ccnc(Oc2c(C3CCC3)ccc(-c3cnc(N)cn3)c2F)n1', 7.52),
  ('COCc1cc(Oc2c(C3CCC3)ccc(-c3cnc(N)nc3)c2F)nc(N)n1', 8.14);

Record CC(C)(C)OC(=O)N1CCCC1COc1c(C2CCC2)ccc(-c2cnc(N)cn2)c1F (stereo not shown) , field pKi: 6.58

Record CS(=O)(=O)c1ccc(COc2c(C3CCC3)ccc(-c3cnc4c(c3)OCCN4)c2F)cc1 , field pKi: 8.01

Record NC(=O)c1ccccc1COc1c(C2CCC2)ccc(-c2cnc(N)cn2)c1F , field pKi: 7.00

Record NC(=O)c1ccc(COc2c(C3CCC3)ccc(-c3cnc4c(c3)OCCN4)c2F)cc1 , field pKi: 8.43

Record N#Cc1ccc(COc2c(C3CCC3)ccc(-c3cnc4c(c3)OCCN4)c2F)cc1 , field pKi: 7.33

----------
# Tested on: leukotriene pathway in human whole blood (LTB4 levels)
# assayProcedure: Human whole blood assay (LTB4)
# Assay type: cell-based
# experimentalSetup: human whole blood diluted 1:1 in RPMI, stimulated with calcium ionophore A23187; single replicate
Counter-ions that a name gives are not always drawn.
metricName: pIC50
Just the number, please; pIC50 means minus log10 of the concentration in mol/L.

Examples from the recorded data:
INSERT INTO assay_data (compound, recordedresult) VALUES
  ('CC(C)Oc1c(C2CCCC2)ccc(-c2cnc(N)cn2)c1F', 5.99),
  ('CC(C)Cc1ccc(-c2cnc(N)cn2)c(F)c1Oc1ncccn1', 6.85),
  ('Nc1cnc(-c2ccc(C3CCC3)c(Oc3ccc(S(F)(F)(F)(F)F)cc3)c2F)cn1', 5.96),
  ('CCOC(=O)c1c(C(F)(F)F)nn(C)c1Oc1c(C2CCC2)ccc(-c2cnc(N)cn2)c1F', 6.24),
  ('CCOC(=O)CCCOc1c(C2CCC2)ccc(-c2cnc(N)cn2)c1F', 5.55),
  ('CC(C)c1cc(Oc2c(C3CCC3)ccc(-c3cnc(N)cn3)c2F)ncn1', 6.73);

The recorded pIC50 with leukotriene pathway in human whole blood (LTB4 levels) for COc1c(C2CCC2)ccc(-c2cnc(N)nc2)c1F was 5.48

The recorded pIC50 with leukotriene pathway in human whole blood (LTB4 levels) for Nc1cnc(-c2ccc(C3CCC3)c(Oc3cc(N)ncn3)c2F)cn1 was 7.34

The recorded pIC50 with leukotriene pathway in human whole blood (LTB4 levels) for Nc1cnc(-c2ccc(C3CCC3)c(OCCNc3ncccn3)c2F)cn1 [Example 296, trifluoroacetic acid salt] was 6.46

The recorded pIC50 with leukotriene pathway in human whole blood (LTB4 levels) for N#Cc1ccc(COc2c(C3CCC3)ccc(-c3cnc(N)cn3)c2F)cn1 [Example 290, trifluoroacetic acid salt] was 6.30

The recorded pIC50 with leukotriene pathway in human whole blood (LTB4 levels) for CS(=O)(=O)c1cccc(COc2c(C3CCC3)ccc(-c3cnc4c(c3)OCCN4)c2F)c1 was 5.96

The recorded pIC50 with leukotriene pathway in human whole blood (LTB4 levels) for CS(=O)(=O)c1ccc(Oc2c(C3CCC3)ccc(-c3cnc(N)cn3)c2F)cc1C(F)(F)F was 7.10

The recorded pIC50 with leukotriene pathway in human whole blood (LTB4 levels) for Cc1cc(C)nc(Oc2c(C3CCC3)ccc(-c3cnc(N)nc3)c2F)n1 was 7.34

The recorded pIC50 with leukotriene pathway in human whole blood (LTB4 levels) for Nc1cnc(-c2ccc(C3CCC3)c(OCC(O)Cn3cncn3)c2F)cn1 (racemic) was 6.08
